- System: ADP induced fall in platelet count
- Method Description: ADP induced fall in platelet count in-vivo in narcotized rats
- Design: species or system rat
- Details: relative to 5,6-dihydroprostacyclin = 1.0; narcotized rats, intravenous
Kindly return fulfilled if reported Relative activity on the ADP induced fall in platelet count in-vivo is no lower than 1; return not fulfilled if it is lower.

# count of solved cases: 3
Compound	Target Entity	Cat
CCCCC(CC)[C@H](O)/C=C/[C@@H]1[C@H]2C/C(=C/c3cccc(C(=O)O)c3)O[C@H]2C[C@H]1O (some centres unmarked) [Example 4b]	ADP induced fall in platelet count	not fulfilled
CCCCC[C@](C)(O)/C=C/[C@@H]1[C@H]2C/C(=C/c3cccc(C(=O)O)c3)O[C@H]2C[C@H]1O [Example 1e)i)]	ADP induced fall in platelet count	fulfilled
O=C(O)c1cccc(/C=C2/C[C@@H]3[C@@H](/C=C/[C@@H](O)C4CCCCC4)[C@H](O)C[C@@H]3O2)c1 [Example 3b]	ADP induced fall in platelet count	fulfilled

Request: Is reported Relative activity on the ADP induced fall in platelet count in-vivo greater than or equal to 1 here: CCCCC[C@](C)(O)/C=C/[C@@H]1[C@H]2C/C(=C\c3cccc(C(=O)O)c3)O[C@H]2C[C@H]1O [1e)ii)]
Result: not fulfilled
